Reported pIC50 values for the following binders.
- measurement_target: T1, Fusion protein of extracellular domain of human TIGIT and mouse IgG2a Fc fragment (human TIGIT ECD-mFc) (human)
- T1 construct: The entry includes the signal peptide (limits not recoverable) and the mouse IgG2a Fc
- T1 chain: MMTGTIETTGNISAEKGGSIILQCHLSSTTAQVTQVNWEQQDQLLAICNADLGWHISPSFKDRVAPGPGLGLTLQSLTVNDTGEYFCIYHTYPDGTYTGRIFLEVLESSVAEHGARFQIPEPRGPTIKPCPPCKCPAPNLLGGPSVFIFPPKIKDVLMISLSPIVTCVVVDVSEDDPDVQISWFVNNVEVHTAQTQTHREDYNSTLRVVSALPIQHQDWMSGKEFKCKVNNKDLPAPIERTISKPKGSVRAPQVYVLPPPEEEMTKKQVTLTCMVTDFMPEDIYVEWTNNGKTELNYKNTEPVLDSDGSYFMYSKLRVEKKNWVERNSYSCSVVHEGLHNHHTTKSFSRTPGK
- assay_method_text: FACS; blocking of TIGIT ECD-mFc binding to CHO-K1 CD112 cells
Please express pIC50 as -log10 of the molar concentration.

Examples with answers:
Enquiry: Fill in the blank: the reported pIC50 of TIGIT-002-H4L3 (antibody, V domains shown, Humanized anti-TIGIT antibody) VH: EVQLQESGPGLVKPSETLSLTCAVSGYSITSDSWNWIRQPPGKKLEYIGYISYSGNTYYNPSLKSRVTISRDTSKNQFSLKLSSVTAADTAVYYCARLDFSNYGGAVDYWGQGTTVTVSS VL: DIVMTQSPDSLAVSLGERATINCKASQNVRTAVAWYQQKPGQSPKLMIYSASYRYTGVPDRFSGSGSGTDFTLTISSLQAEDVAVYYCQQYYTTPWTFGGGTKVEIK is ____.
Return: 8.46

Enquiry: Same read-out for TIGIT-006-H5L3 (antibody, V domains shown, Humanized anti-TIGIT antibody) VH: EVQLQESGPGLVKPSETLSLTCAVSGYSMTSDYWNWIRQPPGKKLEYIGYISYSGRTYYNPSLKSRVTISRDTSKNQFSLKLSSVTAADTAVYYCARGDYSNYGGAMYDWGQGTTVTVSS VL: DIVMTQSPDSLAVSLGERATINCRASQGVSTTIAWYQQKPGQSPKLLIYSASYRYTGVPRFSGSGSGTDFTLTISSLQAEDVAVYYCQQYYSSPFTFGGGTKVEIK ?
Return: 8.33

Let's switch to this binder now.
Enquiry: Could you tell me which pIC50 is on file for TIGIT-070-H1L1 (antibody, V domains shown, Humanized anti-TIGIT antibody) VH: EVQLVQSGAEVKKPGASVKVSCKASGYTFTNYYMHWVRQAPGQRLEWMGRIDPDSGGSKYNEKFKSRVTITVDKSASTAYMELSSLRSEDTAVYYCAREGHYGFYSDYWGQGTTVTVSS VL: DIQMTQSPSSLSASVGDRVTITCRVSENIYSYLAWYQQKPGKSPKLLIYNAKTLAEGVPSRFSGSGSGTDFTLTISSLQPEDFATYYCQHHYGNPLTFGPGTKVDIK ?
Return: 8.37
